Catalogue of compounds with associated pKi
System: Neuropeptide FF receptor 2 (Rattus norvegicus, UniProt Q9EQD2)
Sequence (Q9EQD2 whole entry): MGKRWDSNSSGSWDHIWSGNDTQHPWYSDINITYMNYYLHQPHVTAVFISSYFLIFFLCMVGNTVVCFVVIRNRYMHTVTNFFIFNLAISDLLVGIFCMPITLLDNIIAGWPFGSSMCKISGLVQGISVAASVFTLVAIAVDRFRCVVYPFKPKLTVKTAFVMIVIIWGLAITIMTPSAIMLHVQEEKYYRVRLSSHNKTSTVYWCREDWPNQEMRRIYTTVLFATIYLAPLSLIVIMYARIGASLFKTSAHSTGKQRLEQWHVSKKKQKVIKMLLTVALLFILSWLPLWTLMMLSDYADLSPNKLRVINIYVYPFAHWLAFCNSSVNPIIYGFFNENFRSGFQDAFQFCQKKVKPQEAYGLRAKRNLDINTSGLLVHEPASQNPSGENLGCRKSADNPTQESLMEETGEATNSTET
pKi: −log10 of the molar value. Where a SMILES comes first, the peptide text is derived from it. The star is where a group is joined. Dansyl = CN(C)c1cccc2c(S(=O)(=O)*)cccc12; Desaminotyrosyl = O=C(CCc1ccc(O)cc1)*

>  <Compound>
CN(C)c1cccc2c(S(=O)(=O)N3CCC[C@H]3C(=O)N[C@@H](CCC(N)=O)C(=O)N[C@@H](CCCNC(=N)N)C(N)=O)cccc12 [DANSYLPQRAMIDE]

>  <pKi>
4.87

$$$$
>  <Compound>
CC(C)C[C@H](NC(=O)[C@H](Cc1ccccc1)NC(=O)CCc1ccc(O)cc1)C(=O)N[C@@H](Cc1ccccc1)C(=O)N[C@@H](CCC(N)=O)C(=O)N1CCC[C@H]1C(=O)N[C@@H](CCC(N)=O)C(=O)N[C@@H](CCCNC(=N)N)C(N)=O (Desaminotyrosyl-FLFQPQR-NH2)

>  <pKi>
6.08

$$$$
>  <Compound>
CN(C)c1cccc2c(S(=O)(=O)NCC(=O)N[C@@H](CO)C(=O)N[C@@H](CCCN=C(N)N)C(N)=O)cccc12 (Dansyl-Gly-Ser-Arg-NH2)

>  <pKi>
5.85

$$$$
